System: Trypanosoma brucei
assay info: DNDI: Inhibition of Human African Trypanosomiasis, SBRI 427, in vitro at 2 ug.mL-1
Format: functional
The whole screen tested about 4,400 compounds, of which about 390 (8.9%) showed an effect of 50% or more. The sample as a whole holds a higher share of strong results than the screen did.
In this section, each of the compounds is paired with its reported % inhibition.
assay endpoint: % inhibition (%)

{"columns": ["compound", "system tested", "numeric result"],
 "data": [
  ["Cc1ccc(/C(=N/O)n2ccnc2)c(OCc2ccccn2)n1", "Trypanosoma brucei", 16],
  ["Clc1cccc(N2CCN(Cc3coc(-c4ccco4)n3)CC2)c1", "Trypanosoma brucei", 10],
  ["CCOc1ccccc1-c1nc(CNC(C)C2CCCCC2)co1 (stereo not drawn)", "Trypanosoma brucei", 98],
  ["CCOc1cccc(-c2nc(CNCCc3cccc(OC)c3)co2)c1", "Trypanosoma brucei", 8],
  ["Cc1ccc(/C(=N/O)NCc2ccccc2)c(OCc2ccccn2)n1", "Trypanosoma brucei", 13],
  ["Cc1ccc(/C(=N/O)N2CCC=N2)c(Oc2cccc(F)c2)n1", "Trypanosoma brucei", 21],
  ["CCOc1ccccc1-c1nc(CNC(C)c2ccc(C)cc2)co1 (stereo not drawn)", "Trypanosoma brucei", 15],
  ["COc1ccc(CN/C(=N\\O)c2cccnc2Oc2ccc(C)c3c2CCC3)cc1", "Trypanosoma brucei", 9],
  ["O/N=C(\\NCc1cccs1)c1ccc(Oc2c(F)c(F)cc(F)c2F)nc1", "Trypanosoma brucei", 1],
  ["Cc1ccc(Oc2ncccc2/C(=N/O)NCc2ccncc2)c2c1CCC2", "Trypanosoma brucei", 8],
  ["Cc1cc(C)cc(CN/C(=N\\O)c2ccc(C)nc2OCc2ccccn2)c1", "Trypanosoma brucei", 80],
  ["Cc1ccc(/C(=N/O)NCc2ccccn2)c(OCc2ccccn2)n1", "Trypanosoma brucei", -11],
  ["Fc1cccc(-c2nc(CN3CCN(c4cccc(Cl)c4)CC3)co2)c1", "Trypanosoma brucei", 17],
  ["COc1cc(C)ccc1Oc1nc(C)ccc1/C(=N/O)NCc1cc(F)cc(F)c1", "Trypanosoma brucei", 98],
  ["COc1cc(C)ccc1Oc1nc(C)ccc1/C(=N/O)NCc1c(F)cccc1F", "Trypanosoma brucei", 95],
  ["CCOc1ccccc1-c1nc(CNC2CCCCCCCCCCC2)co1", "Trypanosoma brucei", 99],
  ["CCOc1ccc(-c2nc(CNC(C)C3CCCCC3)co2)cc1 (stereo not drawn)", "Trypanosoma brucei", 87],
  ["CCOc1ccccc1-c1nc(CNC2C[C@H]3CC[C@@H]2C3)co1 (stereo partly drawn)", "Trypanosoma brucei", 28],
  ["COc1cc(C)ccc1Oc1nc(C)ccc1/C(=N/O)NCc1ccccc1", "Trypanosoma brucei", 99],
  ["Cc1ccc(/C(=N/O)N(C)Cc2cccnc2)c(OCc2ccccc2F)n1", "Trypanosoma brucei", 0],
  ["COc1ccc(Oc2nc(C)ccc2/C(=N/O)NCc2cc(F)cc(F)c2)cc1", "Trypanosoma brucei", -8],
  ["Cc1ccc(Oc2nc(C)ccc2/C(=N/O)NCc2c(F)cccc2F)c(C)c1", "Trypanosoma brucei", -3],
  ["Cc1ccccc1-c1nc(CNC(C)C2CCCCC2)co1 (stereo not drawn)", "Trypanosoma brucei", 23]
]}

Origin of measurements: ChEMBL document CHEMBL1857833
